Molecular target: T1, human CD22-ECD-His protein (human, UniProt P20273 20-687)
T1 construct: Recombinant, from HEK293E cells; also called hCD22-ECD-His; human CD22-His protein; not shown: His tag
T1 sequence: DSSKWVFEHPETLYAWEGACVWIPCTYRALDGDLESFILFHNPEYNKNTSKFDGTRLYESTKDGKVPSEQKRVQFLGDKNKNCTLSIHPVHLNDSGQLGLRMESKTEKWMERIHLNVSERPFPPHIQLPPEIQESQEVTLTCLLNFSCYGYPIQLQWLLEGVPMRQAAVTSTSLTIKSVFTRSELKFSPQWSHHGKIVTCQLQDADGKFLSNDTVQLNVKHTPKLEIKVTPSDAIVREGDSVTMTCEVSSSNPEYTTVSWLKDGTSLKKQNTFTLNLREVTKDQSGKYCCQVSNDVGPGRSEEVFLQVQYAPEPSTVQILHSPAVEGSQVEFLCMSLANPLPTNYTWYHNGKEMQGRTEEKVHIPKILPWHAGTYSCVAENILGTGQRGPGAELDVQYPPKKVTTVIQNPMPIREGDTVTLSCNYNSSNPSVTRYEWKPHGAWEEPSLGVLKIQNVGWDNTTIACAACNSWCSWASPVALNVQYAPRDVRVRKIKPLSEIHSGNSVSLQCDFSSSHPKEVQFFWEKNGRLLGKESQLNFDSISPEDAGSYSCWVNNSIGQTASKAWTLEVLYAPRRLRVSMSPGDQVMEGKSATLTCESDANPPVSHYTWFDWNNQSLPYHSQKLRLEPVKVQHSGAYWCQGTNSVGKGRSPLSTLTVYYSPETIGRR
Assay: SPR (Biacore), antibody captured on Protein A chip, CD22-ECD-His in solution
Experimental: Sample buffer and running buffer were HBS-EP+(10 mM HEPES, 150 mM NaCl, 3 mM EDTA, 0.05% surfactant P20) (GE Healthcare; BR-1006-69). The flow-through cell was set to 25° C. The sample block was set to 16° C. Both were pretreated with the running buffer. […] The binding and dissociation process of the antibody and the antigen protein was recorded, and finally Glycine pH 1.5 (GE Healthcare; BR-1003-54) was used to complete chip regeneration. […]
Kd by entry:
// note: answer is a bare numeric in nM

Please look up its Kd: F2.205.9 (antibody, human IgG1, lambda, V domains shown, Chimeric IgG1 lambda) VH: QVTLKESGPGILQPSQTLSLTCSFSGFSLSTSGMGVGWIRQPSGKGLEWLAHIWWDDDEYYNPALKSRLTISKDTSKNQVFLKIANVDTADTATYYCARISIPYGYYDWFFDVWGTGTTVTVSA VL: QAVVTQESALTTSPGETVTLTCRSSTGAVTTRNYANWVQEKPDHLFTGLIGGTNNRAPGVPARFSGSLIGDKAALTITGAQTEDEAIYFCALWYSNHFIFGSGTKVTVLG
1.57

Same for F2.99.1 (antibody, human IgG1, lambda, V domains shown, Chimeric IgG1 lambda) VH: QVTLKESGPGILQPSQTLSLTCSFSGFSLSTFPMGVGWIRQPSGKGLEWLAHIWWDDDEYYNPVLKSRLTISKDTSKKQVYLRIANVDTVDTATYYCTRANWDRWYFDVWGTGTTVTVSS VL: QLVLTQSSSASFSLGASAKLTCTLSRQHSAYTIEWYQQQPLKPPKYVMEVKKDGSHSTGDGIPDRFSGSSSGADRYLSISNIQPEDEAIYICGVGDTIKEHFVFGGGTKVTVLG
1.55
